- Test system: 2Sp-muMax20 (muMax20 with two 2,6-bis(methyl)pyridine Cys staples)
- ASSAY: PBM 8-mer E-score (E-score (rank enrichment, -0.5 to 0.5)); higher = stronger preferential binding
Over roughly 33,000 sequences, “E-score (rank enrichment, -0.5 to 0.5)” has its median near -0.0043; the highest 2% begin near 0.24. The sample holds the highest values, similar sequences and a random draw of the others, so the mix is not that of the screen.
Values of PBM 8-mer E-score greater than or equal to 0.02 map to TRUE; values below map to FALSE.

Does the sequence GGCGCGCC have recorded PBM 8-mer E-score that is 0.02 or more?
FALSE

Does the sequence CAAGCGCA have recorded PBM 8-mer E-score that is 0.02 or more?
TRUE

Does the sequence AAAAATAG have recorded PBM 8-mer E-score that is 0.02 or more?
TRUE

Does the sequence GACGCGCC have recorded PBM 8-mer E-score that is 0.02 or more?
FALSE

Does the sequence CAGAAAAG have recorded PBM 8-mer E-score that is 0.02 or more?
TRUE

Does the sequence AAAGCGCA have recorded PBM 8-mer E-score that is 0.02 or more?
TRUE

Does the sequence AGCGCGCC have recorded PBM 8-mer E-score that is 0.02 or more?
TRUE

----------
- System: 2Sp-muMax20 (muMax20 with two 2,6-bis(methyl)pyridine Cys staples)
- ASSAY: PBM 8-mer E-score (E-score (rank enrichment, -0.5 to 0.5)); higher = stronger preferential binding
Whole data set: some 33,000 sequences, median “E-score (rank enrichment, -0.5 to 0.5)” near -0.0043, cut for the highest 2% near 0.24. Shown is part of a subset that was picked to be rich in the highest values.
Values of PBM 8-mer E-score greater than or equal to 0.1 map to rule met; values below map to rule not met.

AAATATAA
rule met

Does the sequence ACCCCTAA have recorded PBM 8-mer E-score that is 0.1 or more?
rule met

Does the sequence ACGTGAAA have recorded PBM 8-mer E-score that is 0.1 or more?
rule met

Does the sequence CGCAACCA have recorded PBM 8-mer E-score that is 0.1 or more?
rule not met

Does the sequence ACACATGT have recorded PBM 8-mer E-score that is 0.1 or more?
rule met

Does the sequence AACTATAA have recorded PBM 8-mer E-score that is 0.1 or more?
rule met

Does the sequence AATTAGTA have recorded PBM 8-mer E-score that is 0.1 or more?
rule met

Does the sequence CATGTACC have recorded PBM 8-mer E-score that is 0.1 or more?
rule not met

Does the sequence ATGGTAAT have recorded PBM 8-mer E-score that is 0.1 or more?
rule not met

----------
- Test system: 2Sp-muMax20 (muMax20 with two 2,6-bis(methyl)pyridine Cys staples)
- ASSAY: PBM 8-mer E-score (E-score (rank enrichment, -0.5 to 0.5)); higher = stronger preferential binding
Over roughly 33,000 sequences, “E-score (rank enrichment, -0.5 to 0.5)” has its median near -0.0043; the highest 2% begin near 0.24. For the sample, the highest values were picked, then their nearest neighbours and some sequences at random.
READOUT_KIND: PBM 8-mer E-score
Response field accepts a number only; no unit should be typed.

Below, 8 sequences whose answers are already recorded.
CAGTGGCA
-0.004
GGGATAAA
0.0538
CATGTACG
0.29
AATCGCAG
0.142
CAATATGC
0.128
ACCAAGGG
-0.132
AAAAGTGG
0.159
CACAGCGG
-0.125

Query PBM 8-mer E-score on 2Sp-muMax20 (muMax20 with two 2,6-bis(methyl)pyridine Cys staples) for GCACAACA
0.245

Query PBM 8-mer E-score on 2Sp-muMax20 (muMax20 with two 2,6-bis(methyl)pyridine Cys staples) for AATGTACA
0.0795

----------
- Tested on: 2Sp-muMax20 (muMax20 with two 2,6-bis(methyl)pyridine Cys staples)
- ASSAY: PBM 8-mer E-score (E-score (rank enrichment, -0.5 to 0.5)); higher = stronger preferential binding
The full ranking holds about 33,000 sequences; the median of “E-score (rank enrichment, -0.5 to 0.5)” is about -0.0043, and the highest 2% start at about 0.24. For the sample, the highest values were picked, then their nearest neighbours and some sequences at random.
Measured PBM 8-mer E-score, listed per entry for reference.
Response field accepts a number only; no unit should be typed.

Below, 5 sequences whose answers are already recorded.
AACGCGTG
0.13
AACACGTG
0.462
ATATCTCC
0.197
ACTTTCCC
-0.0248
AGCGCGTC
-0.117

What value of PBM 8-mer E-score has been reported for the following sequence? ACCGCGTG
0.284

----------
- System: 2Sp-muMax20 (muMax20 with two 2,6-bis(methyl)pyridine Cys staples)
- ASSAY: PBM 8-mer E-score (E-score (rank enrichment, -0.5 to 0.5)); higher = stronger preferential binding
Over roughly 33,000 sequences, “E-score (rank enrichment, -0.5 to 0.5)” has its median near -0.0043; the highest 2% begin near 0.24. This is one part of a sample in which the highest values are shown more often than they occur.
Measured PBM 8-mer E-score, listed per entry for reference.
Response field accepts a number only; no unit should be typed.

Below, 8 sequences whose answers are already recorded.
CACCTGAC
0.0247
CATTCAAG
-0.108
CATTCACG
0.0213
CATTCACA
0.248
GTTTCAAA
0.073
CTTTCAAA
0.236
CATGCATG
0.382
CGCAAGAC
-0.023

Query PBM 8-mer E-score on 2Sp-muMax20 (muMax20 with two 2,6-bis(methyl)pyridine Cys staples) for ATATCTTA
0.19

----------
Measured PBM 8-mer E-score, listed per entry for reference.
- System: 2Sp-muMax20 (muMax20 with two 2,6-bis(methyl)pyridine Cys staples)
- ASSAY: PBM 8-mer E-score (E-score (rank enrichment, -0.5 to 0.5)); higher = stronger preferential binding
In all, about 33,000 sequences were measured (“E-score (rank enrichment, -0.5 to 0.5)”: median about -0.0043, highest 2% from about 0.24 on). This is one part of a sample in which the highest values are shown more often than they occur.
Response field accepts a number only; no unit should be typed.

GTATATGA
0.0252
CGCTTAAA
0.0219
ATATATGG
0.285

What value of PBM 8-mer E-score has been reported for the following sequence? AAACGGCT
-0.108

What value of PBM 8-mer E-score has been reported for the following sequence? AATATACA
0.272

What value of PBM 8-mer E-score has been reported for the following sequence? ACTACACG
0.134

What value of PBM 8-mer E-score has been reported for the following sequence? ACTACACA
0.317

What value of PBM 8-mer E-score has been reported for the following sequence? CATCCAAC
0.124

What value of PBM 8-mer E-score has been reported for the following sequence? CCTACACG
-0.0918

----------
Measured PBM 8-mer E-score, listed per entry for reference.
- System: 2Sp-muMax20 (muMax20 with two 2,6-bis(methyl)pyridine Cys staples)
- ASSAY: PBM 8-mer E-score (E-score (rank enrichment, -0.5 to 0.5)); higher = stronger preferential binding
Over roughly 33,000 sequences, “E-score (rank enrichment, -0.5 to 0.5)” has its median near -0.0043; the highest 2% begin near 0.24. The list comes from a sample in which the highest values are over-represented; it also holds close analogues and randomly drawn sequences.
Response field accepts a number only; no unit should be typed.

ACCGGCAT
-0.121
CCGCACCG
-0.232
ATTCGAGA
0.239
AGGAGGCG
0.0177
ATCACGAT
0.00138

What value of PBM 8-mer E-score has been reported for the following sequence? CAGCTTGG
-0.0934

What value of PBM 8-mer E-score has been reported for the following sequence? ATATTGCG
0.117

What value of PBM 8-mer E-score has been reported for the following sequence? AATATTAC
0.294

What value of PBM 8-mer E-score has been reported for the following sequence? ATATTGCC
0.238

What value of PBM 8-mer E-score has been reported for the following sequence? CTTCGAGA
-0.0158

What value of PBM 8-mer E-score has been reported for the following sequence? CGATTGCA
0.000985

What value of PBM 8-mer E-score has been reported for the following sequence? CAAAGAGG
0.00199

What value of PBM 8-mer E-score has been reported for the following sequence? GCCAGGGC
-0.343

What value of PBM 8-mer E-score has been reported for the following sequence? AGATTGCA
0.0232

----------
- System: 2Sp-muMax20 (muMax20 with two 2,6-bis(methyl)pyridine Cys staples)
- ASSAY: PBM 8-mer E-score (E-score (rank enrichment, -0.5 to 0.5)); higher = stronger preferential binding
Whole data set: some 33,000 sequences, median “E-score (rank enrichment, -0.5 to 0.5)” near -0.0043, cut for the highest 2% near 0.24. Shown is part of a subset that was picked to be rich in the highest values.
I'd appreciate it if you could label each record using PBM 8-mer E-score and these ranges: bottom: < -0.09; middle: ≥ -0.09 and < 0.09; top: ≥ 0.09

GATCAGTA
top

Band for GGACGCAA ?
middle

Band for CGCTCCCC ?
bottom

Band for CGTTACGC ?
bottom

Band for ATACCATG ?
top
